EXPERIMENTAL_TARGET: EGFR L858R/T790M (Homo sapiens, UniProt P00533, L858R/T790M)
Construct: purchased Carna Bio
Sequence (P00533 25-1210 T790M/L858R): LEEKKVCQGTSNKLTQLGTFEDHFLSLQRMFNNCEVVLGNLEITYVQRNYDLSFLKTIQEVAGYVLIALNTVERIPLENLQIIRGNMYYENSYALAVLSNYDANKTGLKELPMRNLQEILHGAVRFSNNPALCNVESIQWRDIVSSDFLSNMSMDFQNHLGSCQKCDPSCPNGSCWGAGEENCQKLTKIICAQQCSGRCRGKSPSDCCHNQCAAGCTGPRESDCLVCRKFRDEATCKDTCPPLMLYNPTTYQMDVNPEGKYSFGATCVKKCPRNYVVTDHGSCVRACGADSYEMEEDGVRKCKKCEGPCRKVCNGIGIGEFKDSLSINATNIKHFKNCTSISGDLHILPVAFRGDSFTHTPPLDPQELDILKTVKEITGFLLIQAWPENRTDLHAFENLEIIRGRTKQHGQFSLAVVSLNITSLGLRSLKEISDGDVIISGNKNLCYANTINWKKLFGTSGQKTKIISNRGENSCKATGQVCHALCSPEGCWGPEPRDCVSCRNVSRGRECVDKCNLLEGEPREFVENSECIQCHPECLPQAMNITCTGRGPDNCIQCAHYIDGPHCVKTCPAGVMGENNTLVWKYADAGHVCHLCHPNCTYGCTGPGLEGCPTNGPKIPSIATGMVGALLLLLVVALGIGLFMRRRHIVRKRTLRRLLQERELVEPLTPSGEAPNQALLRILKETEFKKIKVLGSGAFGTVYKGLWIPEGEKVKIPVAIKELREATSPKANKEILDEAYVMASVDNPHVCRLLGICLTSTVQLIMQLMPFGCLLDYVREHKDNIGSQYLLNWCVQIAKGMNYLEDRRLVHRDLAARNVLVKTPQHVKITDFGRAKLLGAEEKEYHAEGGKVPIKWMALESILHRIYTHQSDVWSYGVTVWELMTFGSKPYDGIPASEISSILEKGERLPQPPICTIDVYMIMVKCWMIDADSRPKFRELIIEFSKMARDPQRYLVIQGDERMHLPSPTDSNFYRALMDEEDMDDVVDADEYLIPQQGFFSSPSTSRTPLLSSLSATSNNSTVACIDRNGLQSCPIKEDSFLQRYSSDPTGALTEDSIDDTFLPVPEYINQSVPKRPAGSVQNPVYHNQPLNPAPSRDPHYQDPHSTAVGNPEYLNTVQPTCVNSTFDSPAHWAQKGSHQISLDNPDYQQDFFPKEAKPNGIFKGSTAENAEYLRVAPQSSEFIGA
ASSAY_REMARKS: Inhibition of EGFR L858R/T790M biochemical enzymatic activity (HTRF)
TEST_PARAMETERS: EGFR L858R-T790M, 1 mM ATP, 1 h, room temperature, read-out: IC50 (nM) @L858R-T790M
METRIC_NAME: IC50 (nM)

>>> assay_result("C[C@@H]1CCCOc2ccccc2-c2cc(cn(C)c2=O)C(=O)Nc2nc3ccc(N4CCN(C)CC4)cc3n2C1")
11
>>> assay_result("C[C@@H]1CCCOc2c(cnn2C)-c2cc(cn(C)c2=O)C(=O)Nc2nc3ccc(N4CC5(CN(C)CCO5)C4)cc3n2C1")
9.5
>>> assay_result("CN1CCC2(CCN(c3ccc4nc5n(c4c3)C34CCC(CN(CCOc6c(cnn6C)-c6cc(cn(C)c6=O)C(=O)N5)C3)C4)C2)C1 (single isomer, unassigned) [Example A81B]")
2.3
>>> assay_result("CN(C)CCCN(C)c1ccc2nc3n(c2c1)C12CCC(CN(CCOc4c(cnn4C)-c4cc(cn(C)c4=O)C(=O)N3)C1)C2 (single isomer, unassigned) [Example A89B]")
7.4
>>> assay_result("CN(C)[C@H]1CCN(c2ccc3nc4n(c3c2)C23CCC(CN(CCOc5c(cnn5C)-c5cc(cn(C)c5=O)C(=O)N4)C2)C3)C1 (single isomer, unassigned) [Example A66B]")
2.6

(A) Cn1ncc2c1OCCN1CC3CCC(C3)(C1)n1c(nc3ccc(N4CCC(N5CC(F)C5)C4)cc31)NC(=O)c1cc-2c(=O)n(C)c1 (single isomer, unassigned) [Example A94B]
(B) C[C@@H]1CCCOc2ccc(F)cc2-c2cc(cn(C)c2=O)C(=O)Nc2nc3ccc(N4CCN(C)CC4)cc3n2C1
Q: Between these two entries, A and B , state which has the higher IC50. Could you answer with the label of the item you picked?
Result: A

(I) CN1CCN(c2ccc3nc4n(c3c2)CCN(CC(F)(F)F)CCOc2c(cnn2C2CC2)-c2cc(cn(C)c2=O)C(=O)N4)CC1
(II) Cn1ncc2c1OCCN(CC(F)(F)F)CCn1c(nc3ccccc31)NC(=O)c1cc-2c(=O)n(C)c1
Q: // compare measured IC50 between I and II ; output the lower one Could you answer with the label of the item you picked?
Result: I
